Test system: A549
Test: NCI tumour cell line growth inhibition, 48 h
The source made the active and inactive calls. No stated cut-off is given here; in the data, active = GI50 up to about 1.1 µM and inactive = higher.
// GI50 lookup, one value per entry

Example cases with answers are listed next.
CC(C)(C)OC(=O)CN1CCN(CC(=O)N2CCN(C(=O)OCc3ccccc3)CC2)CCN(CC(=O)OC(C)(C)C)CCN(CC(=O)N2CCN(C(=O)OCc3ccccc3)CC2)CC1; 3.27 µM (inactive)
CCOC(=O)c1cn2c(n1)sc1cc(Cl)ccc12; 15.6 µM (inactive)
C=CC(C)(C)/C(=C\CO[Si](C(C)C)(C(C)C)C(C)C)C(=O)N(C)c1ccccc1I; 10.7 µM (inactive)
CCOP(=O)(OCC)/C(C#N)=C/c1ccco1; > 100 µM (inactive)

Now consider the entry below.
Specify reported GI50 for the compound shown: C/C=C/COc1cc(NC(=S)c2ccoc2C)ccc1OC
> 100 µM (inactive)

---

Test system: COLO 205
Assay: NCI tumour cell line growth inhibition, 48 h
The source made the active and inactive calls. Cut-off read from the data, not from the text of the source: active = GI50 up to about 1.1 µM and inactive = higher.
// GI50 lookup, one value per entry

Example cases with answers are listed next.
COC1=CC(=O)c2c(O)ccc(O)c2C1=O; 1.5 µM (inactive)
CCCCCC/C=C/C#CCCCCCCCC(=O)O; > 100 µM (inactive)
Nc1ccn(C2C=C(CO)C(O)C2O)c(=O)c1 (stereo unspecified); > 625 µM (inactive)

Specify reported GI50 for the molecule shown: CCCCCCCC1(c2ccc(N)cc2)CCC(=O)NC1=O (stereo unspecified)
21.9 µM (inactive)

Specify reported GI50 for the molecule shown: CC1=C/C(O)CC(=O)Cc2nc(co2)C(=O)N2CCC=C2C(=O)OC(C(C)C)C(C)/C=C\C(=O)NC/C=C\1 (stereo unspecified)
16.3 µM (inactive)

Specify reported GI50 for the molecule shown: Cc1cn(CCCC2=NCCCN2)c(=O)[nH]c1=O
> 100 µM (inactive)

Specify reported GI50 for the molecule shown: CC(=O)OCCOCNC(=S)N/N=C(\C)c1cnc2ccccc2n1
20.1 µM (inactive)

Specify reported GI50 for the molecule shown: NC(=S)/N=C(/c1nc2ccc(Cl)cc2nc1O)C(O)c1ccccc1Cl (stereo unspecified)
> 100 µM (inactive)

---

System: HOP-62
Experiment: NCI tumour cell line growth inhibition, 48 h
Calls of active or inactive are those of the source. Rule as the data show it: active = GI50 up to about 1.1 µM and inactive = higher.
Write down the outcome that applies. Available outcomes: active, inactive

Worked set:
NC(=S)N/N=C\c1ccc(OCc2cccc(COc3ccc(/C=N/NC(N)=S)cc3)n2)cc1; inactive
Cc1c(-c2ccccc2)n[nH]c1NC1(C)C(=O)N(/N=C/c2ccccc2)N=C1c1ccccc1 (stereo not given); inactive
CCOC(=O)/C(=C\c1cccs1)P(=O)(OCC)OCC; inactive
CC1=C/C(O)CC(=O)Cc2nc(co2)C(=O)N2CCC=C2C(=O)OC(C(C)C)C(C)/C=C\C(=O)NC/C=C\1 (stereo not given); inactive

Now for another entry.
Answer briefly: the call reported for COc1cc([C@@H]2c3cc4c(cc3C[C@@H]3COC(=O)C32)OCO4)cc(OC)c1O (stereo not given in full) in this assay.
active

---

Test system: LOX IMVI
Test: NCI tumour cell line growth inhibition, 48 h
Calls of active or inactive are those of the source. No stated cut-off is given here; in the data, active = GI50 up to about 1.1 µM and inactive = higher.
// GI50 lookup, one value per entry

Example cases with answers are listed next.
O=C[C@@H](CO)O[C@H](C=O)c1c[nH]c(=O)[nH]c1=O; 93.8 µM (inactive)
O=c1oc2ccccc2cc1-c1cn2ccccc2n1; 12.6 µM (inactive)
CCCC(=O)Nc1cn(COC)c(C(=O)N2C[C@H]3C[C@@]34C2=CC(=O)c2[nH]cc(C)c24)n1; 7.14 µM (inactive)
O=C(O)C12CC3(C(=O)O)CC(C(=O)O)(CC(C(=O)O)(C1)C3=O)C2=O; > 100 µM (inactive)
NCC(=O)N1CCN(c2nc(N3CCCC3)c3nc(Cl)c(NCc4ccccc4)nc3n2)CC1; 1.78 µM (inactive)

Specify reported GI50 for the compound shown: O=C1COCCN1C(=O)c1ccccc1Cl
> 100 µM (inactive)

Specify reported GI50 for the compound shown: N#Cc1c(NC(=O)C(F)(F)F)sc2c3c(=O)c4ccccc4c(=O)c=3oc3ccccc3c12
13 µM (inactive)

---

// GI50 lookup, one value per entry
Test system: NCI-H460
Assay: NCI tumour cell line growth inhibition, 48 h
Active and inactive are the calls of the source. Rule as the data show it: active = GI50 up to about 1.1 µM and inactive = higher.

Example cases with answers are listed next.
CC(C)[Si](OC1=C(C(=O)N(C)c2ccccc2Cl)CCCC1)(C(C)C)C(C)C; 12.9 µM (inactive)
CCCC(=O)Nc1cn(COC)c(C(=O)N2C[C@H]3C[C@@]34C2=CC(=O)c2[nH]cc(C)c24)n1; 3.24 µM (inactive)
Oc1[nH]c(Nc2cccc(Cl)c2)nc2ncnc1-2; > 100 µM (inactive)
Cc1ccc2c(c1)C=CC1(O2)N(c2ccccc2)C(=S)OC1(C)C (stereo not given); > 100 µM (inactive)

Now consider the entry below.
Specify reported GI50 for the compound shown: Cc1ccc(C(=O)/C=C2/Nc3ccccc3NC2=O)c(C)c1
13.2 µM (inactive)

---

System: NCI-H226
Assay: NCI tumour cell line growth inhibition, 48 h
Calls of active or inactive are those of the source. No stated cut-off is given here; in the data, active = GI50 up to about 1.1 µM and inactive = higher.
Write down the outcome that applies. Available outcomes: active, inactive

Worked set:
C/C1=C/C[C@@H](/C(C)=C/c2csc(C)n2)OC(=O)C[C@H](O)C(C)(C)C(=O)[C@H](C)[C@@H](O)[C@@H](C)CCC1; active
Nc1ccn(C2C=C(CO)C(O)C2O)c(=O)c1 (stereo not drawn); inactive
CC(=O)O[C@H]1[C@@H](N2CCN(C)CC2)C[C@H]2[C@@H]3CC=C4C[C@@H](N5CCCC5)CC[C@]4(C)[C@H]3CC[C@@]21C; inactive
NC(=S)/N=C(/c1nc2ccc(Cl)cc2nc1O)C(O)c1ccccc1Cl (stereo not drawn); inactive
[O-]c1c2c(nn1-c1ccc(Cl)cc1)c1ccccc1c[n+]2Cc1ccccc1; inactive

Answer briefly: the call reported for O=c1cc(CO)oc(C(O)c2ccccc2)c1O (stereo not drawn) in this assay.
inactive

Answer briefly: the call reported for S=C(N/N=C/c1ccccc1)NC12CC3CC(CC(C3)C1)C2 in this assay.
inactive

Answer briefly: the call reported for CC(=O)O[C@H](C[C@@H](C)[C@H]1C(=O)[C@H](O)[C@@]2(C)C3CC[C@H]4C(C)(C)[C@@H](OC5OCC(O)C(O)C5O)CC[C@@]45C[C@@]35CC[C@]12C)[C@@H]1OC1(C)C (stereo partly drawn) in this assay.
inactive

---

Tested on: NCI-H226
Test: NCI tumour cell line growth inhibition, 48 h
Calls of active or inactive are those of the source. Cut-off read from the data, not from the text of the source: active = GI50 up to about 1.1 µM and inactive = higher.
measure.name: GI50

Example cases with answers are listed next.
CC1C[C@]2(C)C(=S)Nc3ccccc3[C@@H]2Nc2ccccc21 (stereo partly specified); 17.3 µM (inactive)
N#Cc1c(NC(=O)C(F)(F)F)sc2c3c(=O)c4ccccc4c(=O)c=3oc3ccccc3c12; 8.02 µM (inactive)
CC(C)(C)OC(=O)CN1CCN(CC(=O)N2CCN(C(=O)OCc3ccccc3)CC2)CCN(CC(=O)OC(C)(C)C)CCN(CC(=O)N2CCN(C(=O)OCc3ccccc3)CC2)CC1; 3.84 µM (inactive)
COC1=CC2(C=CC1=O)c1cc(OC)c(OC)cc1CCN2C(=O)c1ccccc1 (stereo unspecified); > 100 µM (inactive)
CC(=O)OC1=c2ccccc2=C(O)C2C1C=NN2C(C)=O (stereo unspecified); > 100 µM (inactive)

For NCI-H226, give the measured GI50 of the entry COC(=O)/C=C1\CCC2[C@@H](C(=O)CC3[C@]2(C)CCC[C@@]3(C)C(=O)OC)C1C (stereo partly specified)
20 µM (inactive)

For NCI-H226, give the measured GI50 of the entry CCc1cccc(CC)c1NC(=O)C(C#N)C1=C(Cl)C(=O)c2ccccc2C1=O (stereo unspecified)
15 µM (inactive)

For NCI-H226, give the measured GI50 of the entry Cc1cn(CCCC2=NCCCN2)c(=O)[nH]c1=O
> 100 µM (inactive)

---

Tested on: TK-10
Assay: NCI tumour cell line growth inhibition, 48 h
Active and inactive are the calls of the source. Rule as the data show it: active = GI50 up to about 1.1 µM and inactive = higher.
Write down the outcome that applies. Available outcomes: class 1 (active), class 0 (inactive)

CCOP(=O)(OCC)/C(C#N)=C/c1ccco1; class 0
O=C(Nc1nncs1)NS(=O)(=O)n1cnc2ccccc21; class 0

Answer briefly: the call reported for CC(C)(C)OC(=O)C1=C(C(=O)OC(C)(C)C)SC2(S1)C(C(=O)OC(C)(C)C)=C(C(=O)OC(C)(C)C)Sc1c2ssc1=O in this assay.
class 0

Answer briefly: the call reported for O=C(N/N=C\c1ccc2ccccc2c1)Nc1ccc([N+](=O)[O-])cc1 in this assay.
class 0

---

Tested on: CCRF-CEM
Assay: NCI tumour cell line growth inhibition, 48 h
The source made the active and inactive calls. Cut-off read from the data, not from the text of the source: active = GI50 up to about 1.1 µM and inactive = higher.
Write down the outcome that applies. Available outcomes: active, inactive

Worked set:
O=C1c2cccnc2C(=O)c2c1nc1ccccc1c2-c1ccc2c3c(nc4ccccc42)C(=O)c2cccnc2-c13; inactive
COc1ccc(NC(=S)N/N=C/c2cccc(C)n2)cc1; inactive
CCCC(=O)OCC1OC(n2ccc(N)nc2=O)C(OC(=O)CCC)C1OC(=O)CCC (stereo not given); active

Now for another entry.
Answer briefly: the call reported for COc1ccc(CN2C[C@H]3[C@@H](CC(=O)O[C@H]3C)CC2=O)cc1 in this assay.
inactive
